Target: T1, Human CD137 ECD (human)
T1 construct: entry includes C-terminal His-tag and biotin acceptor peptide; also called human CD137 extracellular domain; 4-1BB
T1 sequence (chain, as listed by the source limits assumed): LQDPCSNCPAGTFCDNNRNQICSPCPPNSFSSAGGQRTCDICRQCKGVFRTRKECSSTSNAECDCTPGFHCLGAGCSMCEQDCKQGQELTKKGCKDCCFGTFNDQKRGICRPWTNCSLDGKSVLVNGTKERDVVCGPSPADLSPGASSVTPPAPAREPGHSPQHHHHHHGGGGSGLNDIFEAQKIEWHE
Test: Biacore SPR, vs parent H183/L072
Please respond with reported fold change of affinity for every item in the list.

H183/L072 VL T92E (antibody, name in Kabat numbering, V domains shown, Dual-Ig) VH: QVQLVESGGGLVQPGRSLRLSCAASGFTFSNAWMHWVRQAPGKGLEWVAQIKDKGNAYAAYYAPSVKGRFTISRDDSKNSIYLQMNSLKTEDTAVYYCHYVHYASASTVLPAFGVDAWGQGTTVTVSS VL: DIVMTQSPLSLPVTPGEPASISCQASQELVHMNRNTYLHWYQQKPGQAPRLLIYKVSNRFPGVPDRFSGSGSGTDFTLKISRVEAEDVGVYYCAQGESVPFTFGQGTKLEIK
0 fold
H183/L072 VL E27aH (antibody, name in Kabat numbering, V domains shown, Dual-Ig) VH: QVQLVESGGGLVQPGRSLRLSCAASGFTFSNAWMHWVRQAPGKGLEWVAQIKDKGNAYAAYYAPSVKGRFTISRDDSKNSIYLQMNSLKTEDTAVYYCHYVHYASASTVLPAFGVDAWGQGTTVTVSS VL: DIVMTQSPLSLPVTPGEPASISCQASQHLVHMNRNTYLHWYQQKPGQAPRLLIYKVSNRFPGVPDRFSGSGSGTDFTLKISRVEAEDVGVYYCAQGTSVPFTFGQGTKLEIK
1.1 fold

Data request: Answer with the recorded fold change of affinity of H183/L072 VL R29I (antibody, name in Kabat numbering, V domains shown, Dual-Ig) VH: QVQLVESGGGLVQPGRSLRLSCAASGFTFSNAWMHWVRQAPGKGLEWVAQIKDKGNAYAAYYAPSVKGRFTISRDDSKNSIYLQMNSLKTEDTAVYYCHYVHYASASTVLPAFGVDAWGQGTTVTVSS VL: DIVMTQSPLSLPVTPGEPASISCQASQELVHMNINTYLHWYQQKPGQAPRLLIYKVSNRFPGVPDRFSGSGSGTDFTLKISRVEAEDVGVYYCAQGTSVPFTFGQGTKLEIK only.
Data returned: 0.3 fold

The measurements presented in this section are drawn from patent US20210388087A1.
